System: M14 melanoma
Assay: NCI-60 one-dose screen, 48 h
Conditions: 10 µM unless noted
Compounds without any hit were thinned out: in the full panel of roughly 83,000, 20% have a hit. Calls of active or inactive are those of the source. Rule for the calls: active = growth percent below 10; inactive = the rest.
Return exactly one item of active, inactive

Some solved cases for reference:
>>> category("Cc1nc2sc(C(=O)Nc3cccc(Br)c3C)c(N)c2cc1C(O)c1ccccc1 (stereo unspecified)")
"active"
>>> category("O=S(=O)(Oc1ccc(Br)cc1)c1ccc(Cl)cc1")
"inactive"

Now for another entry.
Fill in: this test's call for Cn1cc(-c2csc(-c3c[nH]c4ccc(F)cc34)n2)c2ccnc(Cl)c21 is ___ inactive

###

Test system: SNB-75 CNS
Experiment: NCI-60 one-dose screen, 48 h (100 = growth as untreated, 0 = no growth, -100 = all killed)
Conditions: 10 µM unless noted
Compounds without any hit were thinned out: in the full panel of roughly 83,000, 20% have a hit.
Lab note: anything with growth below 80% is marked MET; values at 80% or higher are marked NOT MET.

>>> category("N#C/C(=C\\C=C\\c1ccc(-c2cc(Cl)ccc2Cl)o1)c1nc2ccccc2s1")
"MET"
>>> category("CN1CCN(C(=S)SCCCCOc2cc(=O)oc3ccccc23)CC1")
"NOT MET"
>>> category("COc1ccc(/C=C/C(=O)c2cc3c(N)c(C(=O)Nc4cccc(Cl)c4C)sc3nc2C)cc1")
"MET"
>>> category("C/C(=N\\O)[C@@H]1CC[C@]2(CO)CC[C@]3(C)[C@H](CC[C@@H]4[C@@]5(C)CCCNC(C)(C)[C@@H]5CC[C@]43C)[C@@H]12")
"MET"
>>> category("N#CC1=C(N)Oc2ccc3ccccc3c2C1c1ccc([N+](=O)[O-])cc1 (configuration not stated)")
"MET"
>>> category("Cc1ccc2c(-c3nnc(N)s3)cc(=O)oc2c1C")
"NOT MET"
>>> category("O=C(CC(=O)Nc1cccc(C(=O)O)c1)Nc1cccc(C(=O)O)c1")
"MET"
>>> category("Cc1nc2c(c(=O)[nH]1)C(c1ccccc1)c1ccc3ccccc3c1O2 (configuration not stated)")
"MET"

Report whether reported growth is lower than 80% (strictly) for C/C=C(/C)n1cnc2c(Nc3ccccn3)nc(Cl)nc21 NOT MET

Report whether reported growth is lower than 80% (strictly) for Clc1ccc(-c2cc(-c3ccccc3)nc(NCCNc3ccnc4cc(Cl)ccc34)n2)cc1 MET

Report whether reported growth is lower than 80% (strictly) for N=C(N)c1ccc(-c2ccc(-c3ccccc3)s2)cc1 NOT MET

Report whether reported growth is lower than 80% (strictly) for O=C(/C=C/c1ccc(Oc2ccc(Br)cc2)cc1)c1ccc(Br)cc1 NOT MET

###

Tested on: MDA-MB-231 breast
Experiment: NCI-60 one-dose screen, 48 h (100 = growth as untreated, 0 = no growth, -100 = all killed)
Conditions: 10 µM unless noted
Compounds without any hit were thinned out: in the full panel of roughly 83,000, 20% have a hit.
readout_type: growth (%)
One number for each entry, in %.

Some entries whose results are on file:
>>> reported_result("COc1cc(/C=N/Nc2ccc(Br)cc2)cc(OC)c1OC")
47.5
>>> reported_result("CC[C@]12C=CCN3CC[C@@]4(c5ccc(OC)cc5N(C)[C@H]4[C@@](O)(C(=O)OC)[C@@H]1OC(=O)CCC[P+](c1ccccc1)(c1ccccc1)c1ccccc1)[C@@H]32")
1.29
>>> reported_result("C/C(=N\\O)[C@@H]1CC[C@]2(CO)CC[C@]3(C)[C@H](CC[C@@H]4[C@@]5(C)CCCNC(C)(C)[C@@H]5CC[C@]43C)[C@@H]12")
90.9
>>> reported_result("CC(=O)ON1CCCC(P(=O)(OCCSC(=O)C(C)(C)C)OCCSC(=O)C(C)(C)C)C1=O (stereo unspecified)")
25.1
>>> reported_result("COc1ccc(C(=O)c2cc3c(N)c(C(=O)Nc4ccccc4)sc3nc2C)cc1")
23.3
>>> reported_result("COc1ccc(/C=C/C(=O)c2cc(OC)c(OC)c(OC)c2)cc1OCC(=O)Nc1nc2ccc(OC(F)(F)F)cc2s1")
-16.1
>>> reported_result("Cc1ccc(Cl)cc1NC(=O)c1sc2nc3c(cc2c1N)C(=O)CCC3")
80
>>> reported_result("O=C(CC(=O)Nc1cccc(C(=O)O)c1)Nc1cccc(C(=O)O)c1")
104

Record growth for all entries; do not skip any.
1. O=C(Nc1cc(Cl)ccc1O)c1cccc(Nc2ccnc(C(F)(F)F)c2)c1
2. CC1=CC(c2ccco2)=C2C(N)=NNC2N1 (stereo unspecified)
3. C#CCNC(=O)[C@]1(C)CCC[C@@]2(C)[C@H]1CC=C1C=C(C(C)C)CC[C@@H]12

1. 34.1
2. 92.1
3. 96.3

###

Tested on: U251 CNS
Assay: NCI-60 one-dose screen, 48 h
Conditions: 10 µM unless noted
This is part of a sample that, as a whole, favours compounds with a hit. Of some 83,000 tested, about 20% had one in any assay. Calls of active or inactive are those of the source. The calls were made as follows: active = growth percent below 10; inactive = the rest.
Return exactly one item of 1 (yes) = active, 0 (no) = inactive

Fill in: this test's call for O=C(NNC(=O)c1nc2cc(F)ccc2n2cccc12)c1cnccn1 is ___ 0 (no)

Fill in: this test's call for CN1CCN(CC(=O)Nc2ccc3ncnc(Nc4ccc(Oc5cccc(C(F)(F)F)c5)c(Cl)c4)c3c2)CC1 is ___ 1 (yes)

Fill in: this test's call for O=C(NNc1cnccn1)c1nc2cc(F)ccc2n2cccc12 is ___ 0 (no)

###

System: COLO 205 colon
Assay: NCI-60 one-dose screen, 48 h (100 = growth as untreated, 0 = no growth, -100 = all killed)
Settings: 10 µM unless noted
This is part of a sample that, as a whole, favours compounds with a hit. Of some 83,000 tested, about 20% had one in any assay.
Record form. Attribute: growth. Fill in for each entry.
Give bare numbers, in %.

>>> reported_result("COc1ccc(-c2nc3c(N)c(CO)cnc3s2)cc1")
104

Record growth for all entries; do not skip any.
1. COc1ccc(/C=C2\COc3ccc(O)cc3C2=O)cc1
2. N#Cc1cccc(C2C3=C(COC3=O)N(CCO)c3cc4c(cc32)OCO4)c1 (stereo not drawn)

110
8.4

###

Record form. Attribute: growth. Fill in for each entry.
System: SF-539 CNS
Assay: NCI-60 one-dose screen, 48 h (100 = growth as untreated, 0 = no growth, -100 = all killed)
Settings: 10 µM unless noted
About 83,000 compounds went through this panel and 20% of them were active in at least one assay; those are over-represented in the sample as a whole.
Give bare numbers, in %.

>>> reported_result("Cc1ccc2c(-n3nc(C#N)c(C#N)c3N)cc(=O)[nH]c2c1")
89.8
>>> reported_result("C/C(=N\\O)c1ccc(NC(=O)CSc2nnc(-c3cc(-c4ccc(S(N)(=O)=O)cc4)nc4ccccc34)n2-c2ccccc2)cc1")
76.4
>>> reported_result("O=C(CSc1nc(-c2ccccc2)cc(=O)[nH]1)Nc1nc(-c2ccccc2)cs1")
113
>>> reported_result("CC(=O)Oc1ccc(OC(C)=O)c2ccccc12")
99.9
>>> reported_result("CC/C=C\\CCC/C=C1/C(=O)C=C[C@@H]1C/C=C\\CCCC(=O)OC")
95.4

Record growth for all entries; do not skip any.
1. CCN(CC)c1ccc(/C=N/NC(=O)Cc2ccc(Nc3ccnc(C(F)(F)F)c3)cc2)c(O)c1
2. N#Cc1ccc(O)c(C2=NCC(Cc3ccccc3)O2)c1 (stereo unspecified)
3. CC1(C)[C@@H](O[C@@H]2OC[C@@H](O[C@@H]3O[C@H](CO)[C@@H](O)[C@H](O)[C@H]3O[C@@H]3OC[C@@H](O)[C@H](O)[C@H]3O)[C@H](O)[C@H]2O[C@@H]2O[C@H](CO)[C@@H](O)[C@H](O)[C@H]2O)CC[C@]2(C)[C@H]3CC[C@]45OC[C@@]6(CC[C@](C)(C=O)C[C@H]64)[C@H](O)C[C@@]5(C)[C@]3(C)CC[C@@H]12

1: 17.1; 2: 68.7; 3: -22.6

###

Record form. Attribute: growth. Fill in for each entry.
Tested on: M14 melanoma
Assay: NCI-60 one-dose screen, 48 h (100 = growth as untreated, 0 = no growth, -100 = all killed)
Settings: 10 µM unless noted
This is part of a sample that, as a whole, favours compounds with a hit. Of some 83,000 tested, about 20% had one in any assay. Active and inactive are the calls of the source. How the source made its calls: active means growth percent below 10; inactive means the rest.

Some entries whose results are on file:
>>> reported_result("O=C(/C=C/c1ccccc1)c1ccc(Nc2nc(Nc3ccc(F)cc3)nc(Nc3ccc(Cl)cc3)n2)cc1")
"81.2% (inactive)"
>>> reported_result("Cc1ccc(C2CC(c3nc(-c4ccc(Cl)cc4)oc3C)=NN2C(=O)c2ccncc2)cc1 (stereo not given)")
"93.8% (inactive)"
>>> reported_result("COc1ccc2[nH]cc(-c3nc(-c4c[nH]c5c(Cl)nccc45)cs3)c2c1")
"-26% (active)"
>>> reported_result("COc1ccc(-c2nc(-c3cn(C)c4ncccc34)cs2)cc1")
"-69.6% [100 µM] (active)"
>>> reported_result("Cc1ccc(CNc2c3ccccc3nc3ccccc23)cc1")
"28% (inactive)"

Record growth for all entries; do not skip any.
1. Cc1cc2c(cc1C)N(C(=O)CCl)CC(=O)N2
2. CC(C)=CCNc1ncnc2c1ncn2C1OC(CO)C(O)C1O (stereo not given)
3. Cc1cccc(Oc2ccc(Nc3ncnc4ccc(NC(=O)CN5CCN(C)CC5)cc34)cc2Cl)c1
4. O=C1Nc2ccccc2C1(c1c[nH]c2ccccc12)c1c[nH]c2ccccc12
5. O=C(N/N=C\c1ccccc1S(=O)(=O)O)N/N=C/c1ccccc1S(=O)(=O)O
6. Cc1ccc(-c2nc(N3CCNCC3)c3oc(-c4ccc(C)cc4)nc3n2)cc1
7. O=C1c2ccccc2C(=O)c2c1c(C(=O)NCc1ccccc1)c1ccccn21

1. 55% (inactive)
2. 26.9% [1 mM] (inactive)
3. -72.7% (active)
4. 66% (inactive)
5. 102% (inactive)
6. -94.3% (active)
7. 105% (inactive)

Record growth for all entries; do not skip any.
1. O=C(Cc1ccc(NC(=O)c2cccc(Cl)c2)cc1)NCc1ccccc1
2. CCN1C(=O)N(CC)C2C1NN=c1s/c(=C3\C(=O)N(CC(C)C)c4ccccc43)c(=O)n12 (stereo not given)
3. CN1CCN(CC(=O)Nc2ccc3ncnc(Nc4ccc(Oc5cccc(C(F)(F)F)c5)c(Cl)c4)c3c2)CC1
4. CS(=O)(=O)c1ccc(NC(=O)c2ccccc2)nc1
5. Cc1ccc2nc(/C(C#N)=C(/CCCO)NC(Cc3ccccc3)C(=O)OCc3ccccc3)[nH]c(=O)c2c1 (stereo not given)
6. O=C(/C=C(O)/C=C/c1cccc2[nH]ccc12)/C=C/c1cccc2[nH]ccc12
7. C=CCN1C(=O)c2cccc3c(N4CCOCC4)ccc(c23)C1=O

1. 18.7% (inactive)
2. 18.8% (inactive)
3. -86.5% (active)
4. 115% (inactive)
5. 98.4% (inactive)
6. 38.9% (inactive)
7. 0.387% (active)
